Consider the following binders; for each one, report its Mean clotting time (s), FIX-deficient plasma, APC-antibody concentration 0.5 ug/ml.
TESTED_SYSTEM: human activated protein C (human, UniProt P04070 43-197; P04070 212-461)
METHOD: cell-based or functional assay
Give bare numbers, in s.

# BINDER, QUANTITY_UNIT, OBS_VALUE
measured = [
    ("Humanized antibody 14 (HAPC-14) (antibody, V domains shown, also called Humab001-14; NO; 14 antibody) VH: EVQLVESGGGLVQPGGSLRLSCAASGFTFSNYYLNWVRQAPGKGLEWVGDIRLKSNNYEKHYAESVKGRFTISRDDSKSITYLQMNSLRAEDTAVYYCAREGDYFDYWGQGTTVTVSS VL: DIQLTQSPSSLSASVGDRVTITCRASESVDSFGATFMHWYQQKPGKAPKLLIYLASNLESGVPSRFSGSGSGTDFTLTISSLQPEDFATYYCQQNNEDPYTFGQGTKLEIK", "s", 457),
    ("HAPC-14-9 (antibody, V domains shown, Whole IgG, backbone hIgG1; also called HPAC 14-9) VH: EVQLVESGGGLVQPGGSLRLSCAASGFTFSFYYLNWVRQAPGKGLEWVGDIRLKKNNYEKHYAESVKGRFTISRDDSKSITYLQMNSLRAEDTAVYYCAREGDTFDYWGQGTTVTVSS VL: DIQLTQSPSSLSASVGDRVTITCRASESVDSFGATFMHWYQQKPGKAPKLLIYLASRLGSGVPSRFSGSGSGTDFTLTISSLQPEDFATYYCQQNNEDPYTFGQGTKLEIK", "s", 170),
    ("HAPC-14-1 (antibody, V domains shown, Whole IgG, backbone hIgG1; also called HPAC14-1) VH: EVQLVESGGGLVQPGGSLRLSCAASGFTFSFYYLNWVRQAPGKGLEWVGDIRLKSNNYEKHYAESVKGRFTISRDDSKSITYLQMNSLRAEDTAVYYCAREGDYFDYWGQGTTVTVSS VL: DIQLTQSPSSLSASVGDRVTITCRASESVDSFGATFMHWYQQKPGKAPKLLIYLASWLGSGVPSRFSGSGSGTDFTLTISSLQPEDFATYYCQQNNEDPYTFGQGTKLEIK", "s", 219),
    ("Humanized antibody 13 (HAPC-13) (antibody, V domains shown, also called Humab001-13; NO; 13 antibody) VH: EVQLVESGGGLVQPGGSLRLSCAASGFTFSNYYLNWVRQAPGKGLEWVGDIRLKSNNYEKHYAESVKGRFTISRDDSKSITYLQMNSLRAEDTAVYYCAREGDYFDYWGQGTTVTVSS VL: DIQMTQSPSSLSASVGDRVTITCRASESVDSFGATFMHWYQQKPGKAPKLLIYLASNLESGVPSRFSGSGSGTDFTLTISSLQPEDFATYYCQQNNEDPYTFGQGTKLEIK", "s", 502),
]

Continue with the binder presented below.
Ask: # query: Mean clotting time (s), FIX-deficient plasma, APC-antibody concentration 0.5 ug/ml of entry HAPC-14-4 (antibody, V domains shown, Whole IgG, backbone hIgG1; also called HPAC 14-4) VH: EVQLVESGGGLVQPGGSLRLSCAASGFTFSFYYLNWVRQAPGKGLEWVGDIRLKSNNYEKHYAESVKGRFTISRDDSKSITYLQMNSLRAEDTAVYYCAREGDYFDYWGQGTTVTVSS VL: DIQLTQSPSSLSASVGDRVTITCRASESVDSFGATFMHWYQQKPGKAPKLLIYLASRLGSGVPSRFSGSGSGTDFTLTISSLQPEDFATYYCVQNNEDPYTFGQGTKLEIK
Result: 220
